B1: Tyrosine-protein kinase Lck, residues 63 to 120; numbered along this chain, P06239 (parent)
chain: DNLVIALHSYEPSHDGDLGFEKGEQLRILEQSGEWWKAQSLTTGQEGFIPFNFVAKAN

- Variants of: B1
- assay notes: abundance fitness (aPCA) (normalised: wild type 0, dead -1); higher = more abundant; growth selection in yeast, the domain comes from the species named
- reported conditions: Homo sapiens

mutation label	abundance fitness
G16H	-0.114
Q45W	-0.599
S40T	-0.484
T43A	-0.617
H8I	-0.262
F53E	-0.488
E24A	-0.357
R27H	-0.049
G16E	-0.247
F20N	-0.7
G44R	-0.22
K37H	-0.388
E30T	-0.293
W35M	0.01
D17S	-0.045
T42I	-0.049
S32T	0.05
S40D	-0.626
G23E	-0.823
L41H	-0.765
P50E	-1.21
Q39C	-0.386
H14W	-0.328
F53P	-0.842
F51A	0.104
S13V	-0.097
L26S	-0.84
F53V	-0.268
V54S	-0.751
F20H	-0.836
L41A	-0.382
K22M	-0.514
L41Y	-0.65
N52W	-0.278
Y10N	-0.587
H8N	-0.001
F48M	-0.063
E30W	-0.503
G19A	-0.039
K56Y	-0.138
G44L	-0.271
R27E	-0.022
T42W	-0.24
L29Q	-0.401
S13D	-0.062
Q39D	-1.03
